Source listed as PubChem BioAssay AID1159580.

# ASSAY_NOTES: chemical genetic growth profiling, strain panel (AID 1159580);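 note: tested at 20 µM; growth read once vehicle control cultures reached saturation at 30 °C; 1 = growth at the plate median or of vehicle wells; lower values mean less growth of the strain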
# TEST_CONTEXT: S. cerevisiae deletion strains, growth OD, locus YLR058C, strain SHM2, active compounds read low
Hit rate of the full screen: of about 5,500 compounds, about 2,000 (36%) were called active. Roughly 18% stayed inconclusive and do not appear here. The list shows a part of the results.
Consider the cut-off 1. If the recorded normalized growth is strictly smaller, the label is met; if not, the label is not met.

The following molecules have reported results that may help.
Inquiry: Is the reported normalized growth for CC1=C2C(O)C(=O)OC3CC4C(C)(C)C(=O)C=C[C@]4(C)C(CC1)[C@]23C (some centres undefined) strictly below 1?
Reply text: not met

Inquiry: Same thing, different molecule: `CC[C@@]1(O)C(=O)OCc2c1cc1n(c2=O)Cc2cc3ccccc3nc2-1`
Reply text: met

Inquiry: Same question for `Cc1cc(N)c2ccccc2[n+]1CCCCCCCCCC[n+]1c(C)cc(N)c2ccccc21` please.
Reply text: met

Inquiry: Follow-up item: `O=C(CCCN1CCC(O)(c2ccc(Cl)cc2)CC1)c1ccc(F)cc1`
Reply text: met

Now let's try a different one.
Inquiry: Decide: normalized growth of COC1CC(O[C@H]2CC[C@]3(C=O)C4CC[C@]5(C)C(C6=CC(=O)OC6)CC[C@]5(O)C4CC[C@]3(O)C2)OC(C)C1O (some centres undefined) strictly below 1?
Reply text: not met

---

# ASSAY_NOTES: chemical genetic growth profiling, strain panel (AID 1159580)
# TEST_CONTEXT: S. cerevisiae deletion strains, growth OD, locus YBR229C, strain ROT2, active compounds read low
The whole screen tested about 5,500 compounds, of which about 2,000 (36%) were called active. Not shown: some 18% with an inconclusive outcome. Some of the results follow.
REPORTED_PROPERTY: normalized growth
Please give only the number in your answer, with no unit.

Consider the reported normalized growth for these compounds:
Inquiry: Please give the measured normalized growth for this compound: `C/C=C(\C)C(=O)O[C@@H]1c2c(ccc3ccc(=O)oc23)OC(C)(C)[C@@H]1OC(C)=O`
Reply text: 0.995

Inquiry: `COc1cc(C)c2c(=O)c3c(O)cc(O)cc3oc2c1` ?
Reply text: 0.975

Inquiry: What about this compound? `N#Cc1c(Cl)cccc1Cl`
Reply text: 1.01

Inquiry: Note, next up: `CCOC(=O)/C(C#N)=C/N=C(N/N=C\c1c(Cl)cccc1Cl)SC`
Reply text: 1.02

Inquiry: Try this compound next: `O=C(CCCN1CCC2(CC1)C(=O)NCN2c1ccccc1)c1ccc(F)cc1`
Reply text: 0.964

***
Inquiry: I am curious: what normalized growth value has been reported for `N#Cc1c(Cl)cccc1N1CCC(C(=O)NC(=O)Nc2ccc(Cl)cc2)CC1` ?
Reply text: 1.01

Inquiry: What do you get for `NCCCN` ?
Reply text: 0.99

Inquiry: What do you get for `O=C1c2ccccc2C(=O)N1CN1CCC(O)(c2ccc(Cl)cc2)CC1` ?
Reply text: 0.982

Inquiry: // query: `COc1ccc(-c2cc(=O)c3c(O)cc(O)c(-c4cc(-c5cc(=O)c6c(O)cc(O)cc6o5)ccc4OC)c3o2)cc1`
Reply text: 0.998

Inquiry: Try `NC[C@H]1O[C@H](O[C@H]2[C@H](O)[C@@H](O[C@H]3O[C@H](CO)[C@@H](O)[C@H](N)[C@H]3O)[C@H](N)C[C@@H]2N)[C@H](N)[C@@H](O)[C@@H]1O` next.
Reply text: 0.995

Inquiry: What about this compound? `COc1ccc(-c2cc(=O)c3c(O)cc(O)cc3o2)cc1O`
Reply text: 0.987

Inquiry: Could you do the same for `CN1c2ccccc2C(=O)/C(=N/Nc2ccccc2F)S1(=O)=O` , please?
Reply text: 1.02

Inquiry: Further, for `COc1cc(O)c2c(=O)cc(-c3ccc(OC)c(-c4c(O)cc(O)c5c(=O)cc(-c6ccc(O)cc6)oc45)c3)oc2c1` ?
Reply text: 0.948

Inquiry: Same for `COC(OC)c1ccc(C#N)c(=S)[nH]1`
Reply text: 1.02

Inquiry: Now this one: `COc1ccc(-c2cc(=O)c3c(O)cc(O)cc3o2)cc1`
Reply text: 1

Inquiry: Please do the same for `COc1ccccc1N1CCN(CCCNc2cc(=O)n(C)c(=O)n2C)CC1` as well.
Reply text: 0.952

Inquiry: Request: `C/C=C(/C)C(=O)O[C@@H]1Cc2c(ccc3ccc(=O)oc23)OC1(C)C`
Reply text: 0.984

---

# ASSAY_NOTES: chemical genetic growth profiling, strain panel (AID 1159580);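 note: tested at 20 µM; growth read once vehicle control cultures reached saturation at 30 °C; 1 = growth at the plate median or of vehicle wells; lower values mean less growth of the strain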
# TEST_CONTEXT: S. cerevisiae deletion strains, growth OD, locus YLR221C, strain rsa3, active compounds read low
Screen size: about 5,500 compounds; about 2,000 (36%) were called active. Not shown: some 18% with an inconclusive outcome. The list shows a part of the results.
REPORTED_PROPERTY: normalized growth
Form: value (number only, do not type unit).

Inquiry: Name the reported normalized growth value associated with the compound C[C@]12CCC3C(CC[C@]4(O)C[C@@H](O)CC[C@]34C=O)[C@@]1(O)CCC2C1=CC(=O)OC1 (stereo partly drawn)
Reply text: 1

Inquiry: Same for CC(=O)OCC(=O)[C@@]1(O)CCC2C3C[C@H](C)C4=CC(=O)C=CC4(C)C3[C@@H](O)CC21C (stereo partly drawn)
Reply text: 0.997

Inquiry: Queued: CC1=CC(=O)C2C(C)(C)CCC[C@]2(C)[C@@]1(O)CCc1ccoc1 (stereo partly drawn)
Reply text: 1.02

Inquiry: Note, next up: CC(=O)OC1CC[C@@]2(C)C(CCC3C2CC[C@]2(C)C(C4=CC(=O)OC4)C(OC(C)=O)CC32O)C1 (stereo partly drawn)
Reply text: 0.997

Inquiry: Similarly, `CCn1nc(C(=O)O)c(=O)c2cc3c(cc21)OCO3` ?
Reply text: 1.02

---

# ASSAY_NOTES: chemical genetic growth profiling, strain panel (AID 1159580);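 note: tested at 20 µM; growth read once vehicle control cultures reached saturation at 30 °C; 1 = growth at the plate median or of vehicle wells; lower values mean less growth of the strain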
# TEST_CONTEXT: S. cerevisiae deletion strains, growth OD, locus YPR119W, strain clb2, active compounds read low
The campaign covered roughly 5,500 compounds. About 2,000 (36%) were called active. Not shown: some 18% with an inconclusive outcome. The list shows a part of the results.
REPORTED_PROPERTY: normalized growth
Provide a numeric answer; units are not to be included.

Inquiry: Data request, read-out normalized growth, for `CC(=O)O[C@@H]1c2c(ccc3ccc(=O)oc23)OC(C)(C)[C@@H]1OC(=O)CC(C)C`
Reply text: 1

Next:
Inquiry: Need normalized growth of `C/C=C(/C)C(=O)O[C@@H]1Cc2c(ccc3ccc(=O)oc23)OC1(C)C` , thanks.
Reply text: 0.976

Inquiry: Moving on to CC1(C)Oc2ccc3ccc(=O)oc3c2CC1O (stereo not given)
Reply text: 0.997

Inquiry: And then `COc1cc(C(=O)N2CCOCC2)cc(OC)c1OC` , what is it?
Reply text: 0.143

Inquiry: What about `NC[C@H]1O[C@H](O[C@H]2[C@H](O)[C@@H](O[C@H]3O[C@H](CO)[C@@H](O)[C@H](N)[C@H]3O)[C@H](N)C[C@@H]2N)[C@H](N)[C@@H](O)[C@@H]1O` ?
Reply text: 0.993

Inquiry: Please do the same for `O=C(CCCN1CCC(O)(c2ccc(Cl)cc2)CC1)c1ccc(F)cc1` as well.
Reply text: 1.04

Inquiry: Note, next up: `CN(C)C(=O)C(CCN1CCC(O)(c2ccc(Cl)cc2)CC1)(c1ccccc1)c1ccccc1`
Reply text: 1.01

Inquiry: // repeat for `O=C(CCCN1CCC2(CC1)C(=O)NCN2c1ccccc1)c1ccc(F)cc1` and report
Reply text: 0.987

Inquiry: Thanks! And `COC1=CC(=O)C=C(OC)C1=O` ?
Reply text: 0.981

Inquiry: Check `COc1cc(C(=O)O)cc(OC)c1OC` too.
Reply text: 1.02

---

# ASSAY_NOTES: chemical genetic growth profiling, strain panel (AID 1159580);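 note: tested at 20 µM; growth read once vehicle control cultures reached saturation at 30 °C; 1 = growth at the plate median or of vehicle wells; lower values mean less growth of the strain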
# TEST_CONTEXT: S. cerevisiae deletion strains, growth OD, locus YBR171W, strain sec66, active compounds read low
Hit rate of the full screen: of about 5,500 compounds, about 2,000 (36%) were called active. Not shown: some 18% with an inconclusive outcome. This is one part of the list.
# Lookup of reported normalized growth keyed by entry
Lab note: jot the number down without any unit.

Inquiry: Fill in the blank: the reported normalized growth of CC1Cc2ccccc2N1NC(=O)c1ccc(Cl)c(S(N)(=O)=O)c1 (centres undefined) is ____.
Reply text: 0.997

Inquiry: Same question, `COc1c(O)cc2c(c1O)[C@H]1O[C@H](CO)[C@@H](O)[C@H](O)[C@@H]1OC2=O` this time
Reply text: 1.02

Inquiry: Please answer likewise for `CN[C@H]1CC[C@@H](c2ccc(Cl)c(Cl)c2)c2ccccc21`
Reply text: 1.01

New cases:
Inquiry: Consider the compound CCCCCC(O)C1C(=O)OC(C)C(O)/C=C/C=C/C=C/C=C/C=C(\C)C(O)CC(O)CC(O)CC(O)CC(O)CC(O)CC1O (centres undefined) and give its measured normalized growth.
Reply text: 0.982

Inquiry: What about this compound? `CCn1nc(C(=O)O)c(=O)c2cc3c(cc21)OCO3`
Reply text: 1

Inquiry: Also CC1CCCC(C)N1NC(=O)c1ccc(Cl)c(S(N)(=O)=O)c1 (centres undefined) ?
Reply text: 1.03

Inquiry: And the next one, NS(=O)(=O)c1cc2c(cc1C(F)(F)F)NC(Cc1ccccc1)NS2(=O)=O (centres undefined) ?
Reply text: 0.981

Inquiry: Then CC1(C)O[C@@H]2CC3C4C[C@H](F)C5=CC(=O)CC[C@]5(C)C4[C@@H](O)C[C@]3(C)[C@]2(C(=O)CO)O1 (some centres undefined) ?
Reply text: 1.01

Inquiry: Same for Cc1ccccc1N1C(=O)c2cc(S(N)(=O)=O)c(Cl)cc2NC1C (centres undefined)
Reply text: 0.963
